target-or-test-system: HLA-A*69:01
protocol-summary: IEDB peptide-MHC binding, purified MHC/competitive/fluorescence; filed as Kd, often an IC50 or EC50 that approximates it; bounds were set here for any values at or beyond the usual limits of such assays
particulars: source organism: Escherichia coli
pKd: −log10 of the molar value.
measurement-label: pKd

Form field: reported pKd of MFWKLPPWL ≤ 4.70

* * *

target-or-test-system: HLA-A*24:03
protocol-summary: IEDB peptide-MHC binding, purified MHC/direct/fluorescence; filed as Kd, often an IC50 or EC50 that approximates it; bounds were set here for any values at or beyond the usual limits of such assays
particulars: source organism: Influenza A virus H3N2
measurement-label: Kd

Look up Kd: AVDADDSHF ≥ 20 µM

* * *

target-or-test-system: HLA-A*02:03
protocol-summary: IEDB peptide-MHC binding, purified MHC/competitive/radioactivity; filed as Kd, often an IC50 or EC50 that approximates it; bounds were set here for any values at or beyond the usual limits of such assays
particulars: source organism: Homo sapiens
This section presents sequences with their documented Kd values.
// note: answer is a bare numeric in nM

sequence-data	uom	reported-measurement
QLYKEQLAKL	nM	16.3

Name the recorded Kd for ELNDRLAVYI . 1220

* * *

target-or-test-system: HLA-A*23:01
protocol-summary: IEDB peptide-MHC binding, purified MHC/direct/fluorescence; filed as Kd, often an IC50 or EC50 that approximates it; bounds were set here for any values at or beyond the usual limits of such assays
particulars: source organism: Cryptosporidium parvum Iowa II
measurement-label: pKd
Please keep in mind that pKd is minus log10 of the molar concentration; only the number is needed.

Returns the measured pKd for the input sequence. Input: GFKRGIFIF 8.70

* * *

target-or-test-system: HLA-A*03:01
protocol-summary: IEDB peptide-MHC binding, purified MHC/competitive/fluorescence; filed as Kd, often an IC50 or EC50 that approximates it; bounds were set here for any values at or beyond the usual limits of such assays
particulars: source organism: Shigella flexneri 5 str. 8401
measurement-label: Kd

Form entry - test system: HLA-A*03:01; read-out: Kd; sequence: NELQTLPSL ≥ 20 µM

* * *

target-or-test-system: HLA-A*31:01
protocol-summary: IEDB peptide-MHC binding, purified MHC/direct/fluorescence; filed as Kd, often an IC50 or EC50 that approximates it; bounds were set here for any values at or beyond the usual limits of such assays
particulars: source organism: Rickettsia typhi
pKd: −log10 of the molar value.
measurement-label: pKd

Query (sequence): APILVVSGI ; field requested: pKd ≤ 4.70

* * *

target-or-test-system: HLA-A*02:06
protocol-summary: IEDB peptide-MHC binding, purified MHC/competitive/radioactivity; filed as Kd, often an IC50 or EC50 that approximates it; bounds were set here for any values at or beyond the usual limits of such assays
particulars: source organism: Dengue virus 1 Brazil/97-11/1997
measurement-label: pKd
pKd field: float, defined as -log10 of concentration (mol/L).

As a guide, the following entries are already answered.
sequence-data	measurement-label	reported-measurement
SQKTTWLPV	pKd	6.76
WALRHPGFTV	pKd	7.08

Please find the next sequence below.
Param readout= pKd; system= HLA-A*02:06; entry= LLMRTTWAL ; returns value. 8.84

* * *

target-or-test-system: HLA-C*06:02
protocol-summary: IEDB peptide-MHC binding, purified MHC/competitive/fluorescence; filed as Kd, often an IC50 or EC50 that approximates it; bounds were set here for any values at or beyond the usual limits of such assays
particulars: source organism: human gammaherpesvirus 4
measurement-label: pKd
Would you please state pKd, meaning minus log10 of the concentration in mol/L, as a bare number?

What does the data say about its pKd? Entry: YAMAIRQAI 7.00

* * *

target-or-test-system: HLA-B*08:01
protocol-summary: IEDB peptide-MHC binding, purified MHC/competitive/radioactivity; filed as Kd, often an IC50 or EC50 that approximates it; bounds were set here for any values at or beyond the usual limits of such assays
particulars: source organism: Vaccinia virus WR
pKd: −log10 of the molar value.
Classify by measured pKd: criterion met if it is equal to or exceeds 7, criterion not met if it is smaller.

Example entries and their recorded answers appear below.
sequence-data	classification
SDMQKFTIL	criterion met
MVKNNKIQK	criterion not met
TMKERRPIL	criterion met
YQSLSPPPF	criterion not met
VLFEVFVVF	criterion not met

Decide: is the reported value of pKd for WSIYLSLHY equal to or greater than 7? criterion not met

Has FPRYHSIEL a recorded pKd greater than or equal to 7? criterion met

Record EPGSSFKFL ; criterion: pKd no lower than 7. Met? criterion not met

Does pKd meet or surpass 7 for LLKDRNELF ? criterion met

Reported pKd reaches at least 7 for SYLRKFSAL ? criterion met

Given ISESRFQSL , state whether its pKd is at least 7. criterion met

Reported pKd at or above 7? NARLKPLDI criterion met

Check if pKd >= 7 (inclusive). Item: QIVAYFSEF criterion not met

pKd >= 7 for ESKMSFLPI ? criterion met

* * *

target-or-test-system: HLA-A*11:01
protocol-summary: IEDB peptide-MHC binding, purified MHC/competitive/radioactivity; filed as Kd, often an IC50 or EC50 that approximates it; bounds were set here for any values at or beyond the usual limits of such assays
particulars: source organism: Mammarenavirus juninense
pKd: −log10 of the molar value.
sequences and their reported pKd

sequence-data	pKd
SWPVQCPLDH	≤ 4.16

// moving on: another record for pKd
Form field: pKd recorded for PLLCNLNKSH with HLA-A*11:01 (enter value) ≤ 4.16

* * *

target-or-test-system: HLA-A*69:01
protocol-summary: IEDB peptide-MHC binding, purified MHC/direct/fluorescence; filed as Kd, often an IC50 or EC50 that approximates it; bounds were set here for any values at or beyond the usual limits of such assays
particulars: source organism: Salmonella enterica
measurement-label: pKd
Give only the number. pKd is defined as minus log10 of concentration in molar units.

# pKd lookup, item ATGDYVAFV 7.80

* * *

target-or-test-system: HLA-B*15:01
protocol-summary: IEDB peptide-MHC binding, purified MHC/direct/fluorescence; filed as Kd, often an IC50 or EC50 that approximates it; bounds were set here for any values at or beyond the usual limits of such assays
particulars: source organism: Lassa virus Josiah
measurement-label: Kd

Look up Kd for this sequence: NHYLCLNCL ≥ 20 µM

* * *

target-or-test-system: HLA-A*68:01
protocol-summary: IEDB peptide-MHC binding, purified MHC/competitive/radioactivity; filed as Kd, often an IC50 or EC50 that approximates it; bounds were set here for any values at or beyond the usual limits of such assays
particulars: source organism: Lassa virus GA391
measurement-label: Kd (µM)
Give the value, in units of µM, as a plain number.

Recorded Kd for LMSIISTFH , please? 3.16

* * *

target-or-test-system: HLA-B*57:01
protocol-summary: IEDB peptide-MHC binding, purified MHC/competitive/radioactivity; filed as Kd, often an IC50 or EC50 that approximates it; bounds were set here for any values at or beyond the usual limits of such assays
particulars: source organism: Dengue virus 2 Jamaica/1409/1983
Kd values by entry
I only need the number, in nM, no unit after it.

sequence-data	Kd, nM
GSSPILSITI	114

Pending sequence:
Which Kd value is on record for LGKSYAQMW ? 92.7

* * *

target-or-test-system: HLA-A*30:01
protocol-summary: IEDB peptide-MHC binding, purified MHC/competitive/radioactivity; filed as Kd, often an IC50 or EC50 that approximates it; bounds were set here for any values at or beyond the usual limits of such assays
particulars: source organism: Variola virus
measurement-label: pKd
Hey, just a heads up that pKd is the negative log base 10 of the concentration in molar.

Quick check: pKd of LSINSSFYF ? 6.01

* * *

target-or-test-system: HLA-B*07:02
protocol-summary: IEDB peptide-MHC binding, purified MHC/direct/fluorescence; filed as Kd, often an IC50 or EC50 that approximates it; bounds were set here for any values at or beyond the usual limits of such assays
particulars: source organism: Escherichia coli 536
pKd: −log10 of the molar value.
measurement-label: pKd

Name the reported pKd value associated with the sequence RYICPVQQI ≤ 4.70

* * *

target-or-test-system: HLA-A*02:03
protocol-summary: IEDB peptide-MHC binding, purified MHC/competitive/radioactivity; filed as Kd, often an IC50 or EC50 that approximates it; bounds were set here for any values at or beyond the usual limits of such assays
particulars: source organism: Dengue virus 4 Philippines/H241/1956
measurement-label: pKd
Quick note: pKd values are minus log10 of concentrations in mol/L.

As a guide, the following entries are already answered.
sequence-data	reported-measurement
FMTATPPGA	6.82
KLSMGLIAI	7.50
YMPTVIEEL	7.04

For the sequence shown here, TLYAVATTIL , give the reported pKd. 7.00

* * *

target-or-test-system: HLA-C*15:02
protocol-summary: IEDB peptide-MHC binding, purified MHC/direct/fluorescence; filed as Kd, often an IC50 or EC50 that approximates it; bounds were set here for any values at or beyond the usual limits of such assays
particulars: source organism: Vibrio vulnificus YJ016
measurement-label: Kd

What is its Kd for HLA-C*15:02? Entry: YYGRWVHEF ≥ 20 µM

# credit: the Immune Epitope Database (IEDB)
